Molecular target: human AT1 receptor (Homo sapiens, UniProt P30556)
Construct: expressed in transfected cells; host or cells: CHO-K1
Sequence (P30556 whole entry): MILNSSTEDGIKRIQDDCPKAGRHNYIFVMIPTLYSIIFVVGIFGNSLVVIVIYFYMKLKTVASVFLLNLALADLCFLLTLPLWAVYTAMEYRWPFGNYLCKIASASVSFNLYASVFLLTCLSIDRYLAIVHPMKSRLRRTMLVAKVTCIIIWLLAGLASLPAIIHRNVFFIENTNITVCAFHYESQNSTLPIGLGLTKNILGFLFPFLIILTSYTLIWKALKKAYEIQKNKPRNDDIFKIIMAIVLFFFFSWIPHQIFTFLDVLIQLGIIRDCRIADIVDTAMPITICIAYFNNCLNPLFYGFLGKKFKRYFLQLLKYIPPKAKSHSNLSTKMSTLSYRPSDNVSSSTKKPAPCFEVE
Test: Binding assay using human AT1 receptor-expressing CHO-K1 cell membrane fraction ([125I]-angiotensin II)
Conditions: 22.5 pM [125I]-angiotensin II, 9 μg AT1 membrane, 1 hr room temperature; read-out: AT1 receptor binding inhibitory action (IC50 (nM))
MEASURED METRIC: IC50 (nM)

Sample answers from the record:
> print(dat)
                                   compound  result
1  CCCc1nc(C(F)F)n(-c2ccc(OC)cc2)c(=O)c1Cc1ccc(-c2ccccc2-c2noc(=O)[nH]2)cc1     2.1
2  CCCc1nc(CC)n(-c2ccc(OC(COCC)COCC)cc2)c(=O)c1Cc1ccc(-c2ccccc2-c2noc(=O)[nH]2)cc1     1.7
3  CCCc1nc(C)n(-c2ccc(OC(CC)CC)cc2)c(=O)c1Cc1ccc(-c2ccccc2-c2noc(=O)[nH]2)cc1       2
4  CCCc1nc(CC)n(-c2ccc(OC(C)(C)CO)cc2)c(=O)c1Cc1ccc(-c2ccccc2-c2noc(=O)[nH]2)cc1     1.5
5  CCCc1nc(C)n(-c2ccc(OC(C)(C)C(C)O)cc2)c(=O)c1Cc1ccc(-c2ccccc2-c2noc(=O)[nH]2)cc1 (centres unmarked)     1.4
6  CCCc1nc(CC)c(CN2CCOCC2)c(=O)n1Cc1ccc(-c2ccccc2-c2noc(=O)[nH]2)cc1       2

I. CCCc1nc(C)n(CC2CCCCO2)c(=O)c1Cc1ccc(-c2ccccc2-c2noc(=O)[nH]2)cc1 (centres unmarked)
II. CCCc1nc(C)n(-c2ccc(OC3CCC(=O)CC3)cc2)c(=O)c1Cc1ccc(-c2ccccc2-c2noc(O)n2)cc1F
III. CCCc1nc(CC)c(-c2ccc(OCC3CC3)nc2)c(=O)n1Cc1ccc(-c2ccccc2-c2noc(=O)[nH]2)cc1
# ascending order, key=IC50 Order the labels as requested and list them.
II, I, III
(II: 1 nM, I: 1.6 nM, III: 2.7 nM)
